tested on: Human normal fibroblast cell line (WI-38); experiment: cells; assay type: cell-based; conditions: cytotoxicity, WI-38 human fibroblasts, Table 3; read-out: WI38 (IC50 μM)
value-kind: IC50
Show the value, then the unit it is measured in.

Kindly indicate its recorded IC50. Item: `C[C@H]1[C@H](C)CC[C@]2(C(=O)O)CC[C@]3(C)C(=CC[C@@H]4[C@@]5(C)CC[C@H](O)C(C)(C)[C@@H]5CC[C@]43C)[C@H]12`
11.1 µM

Quote IC50 reported for `CC[C@@]1(O)C(=O)OCc2c1cc1n(c2=O)Cc2cc3ccccc3nc2-1` please.
0.12 µM

Give the reported value of IC50 for this record: `C[C@H]1[C@H](C)CC[C@]2(C(=O)O)CC[C@]3(C)C(=CC[C@@H]4[C@@]5(C)C[C@@H](O)[C@H](O)C(C)(C)[C@@H]5CC[C@]43C)[C@H]12`
19.8 µM

Report measured IC50; entry is `CC1(C)CC[C@]2(C(=O)O)CC[C@]3(C)C(=CC[C@@H]4[C@@]5(C)CC[C@H](O)C(C)(C)[C@@H]5CC[C@]43C)[C@@H]2C1`
63.3 µM

Look up and state reported IC50 for `C[C@@H]1CC[C@]2(C(=O)O)CC[C@]3(C)C(=CC[C@@H]4[C@@]5(C)C[C@@H](O)[C@H](O)C(C)(C)[C@@H]5CC[C@]43C)[C@@H]2[C@]1(C)O`
54.2 µM

###

test system: Human normal fibroblast cell line (WI-38); test: cells; assay type: cell-based; conditions: Homo sapiens, WI-38, read-out: WI38 (IC50 μM)
value-kind: IC50 (µM)
Write the value in µM as a bare number.

Quick one: give measured IC50 for CC1(C)CC[C@]2(C(=O)O)CC[C@]3(C)C(=CC[C@@H]4[C@@]5(C)C[C@@H](O)[C@H](O)C(C)(C)[C@@H]5CC[C@]43C)[C@@H]2C1 [Maslinic acid]
44.1

###

tested on: Trypanosoma brucei brucei bloodstream forms (strain 427); test: In vitro antitrypanosomal activity on Tbb BSF; type: cell-based; settings: Trypanosoma brucei, read-out: Tbb (IC50 μM)
value-kind: IC50 (µM)
Please respond with the number in µM and leave the unit unwritten.

For CC1(C)CC[C@]2(C(=O)O)CC[C@]3(C)C(=CC[C@@H]4[C@@]5(C)C[C@@H](O)[C@H](O)C(C)(C)[C@@H]5CC[C@]43C)[C@@H]2C1 [Maslinic acid] , write its IC50.
9.41
